Measured values drawn from patent US6770652B2 for this set.

experimentNotes: U251 cytotoxicity
Format: cell-based
conditionNotes: human, U251 cells; Table 4; read-out: U251 cytotoxicity Inhibition, apparent IC50
pIC50: −log10 of the molar value.
We begin with a simple list: items and their reported pIC50.
valueKind: pIC50

Cc1ccccc1Cc1cc2c(Nc3cccc(Br)c3)nc(N)nc2[nH]1 [YJ/AG 168]    5.30
Cc1cc(C)c(/C=C2\C(=O)Nc3ccccc32)[nH]1 [SU5416, reference compound]    6.70
Nc1nc(Nc2cccc(Br)c2)c2cc(Cc3ccccc3)[nH]c2n1 [YJ/AG 156]    5.47
